Reported EC50 is given for each of the following compounds.
# TEST_SYSTEM: human activated kallikrein enzyme (Homo sapiens, UniProt P03952)
# ASSAY_PROTOCOL: Inhibition of human activated plasma kallikrein, fluorogenic peptide substrate (PFR-AMC), 500 pM enzyme format
# CONDITION: 500 pM activated kallikrein, 30 min preincubation, 10 min reaction, room temperature, read-out: Primary Dose Response Assay: Average EC50

Previously resolved entries follow.
COMPOUND: O=C(Nc1cc(NCc2cn3c(=O)n(C4CC4)ccc3n2)ccn1)[C@H]1C[C@@H]1c1cccc(Cl)c1 [Example 36]
DATA_VALUE: 2.5 to 25 nM

COMPOUND: O=C(Nc1cc(NCc2cc3cc(C4CC4)cc(N4CCCC4=O)n3n2)ncn1)[C@H]1C[C@@H]1c1cccc(Cl)c1 [Example 52]
DATA_VALUE: 2.5 to 25 nM

COMPOUND: Cc1ccnc([C@H]2C[C@@H]2C(=O)Nc2cc(N(C)Cc3cn4cc(C5CC5)cnc4n3)nc(C)n2)n1 [Example 90]
DATA_VALUE: < 2.5 nM

COMPOUND: Cc1ccnc([C@H]2C[C@@H]2C(=O)Nc2cc(N(C)Cc3cn4cc(C5CC5)nc(N5CC(=O)N(C)C5=O)c4n3)ncn2)n1 [Example 83]
DATA_VALUE: < 2.5 nM

COMPOUND: O=C(Nc1nccc2nn(Cc3cn4nc(C5CC5)ccc4n3)cc12)[C@H]1C[C@@H]1c1cccc(Cl)c1 [Example 35]
DATA_VALUE: < 2.5 nM

The recorded EC50 for O=C(Nc1cc(OCc2csc(-c3ccccc3)n2)cnn1)[C@H]1C[C@@H]1c1cccc(Cl)c1 (racemic) [Example 2] is > 500 nM

// sample O=C(Nc1cc(Cc2ccc3ncc(C4CC4)cc3c2)ncn1)[C@H]1C[C@@H]1c1cccc(Cl)c1 (racemic) [Example 21] , its EC50 was > 500 nM

Consider O=C(Nc1cc(NCc2cn3nc(C4CC4)cc(N4CCOC4=O)c3n2)ncn1)[C@H]1C[C@@H]1c1cccc(Cl)c1 [Example 44] . Its measured EC50 is 2.5 to 25 nM

EC50 in this record for CN(C(=O)[C@H]1C[C@H](O)CN1c1cc(NC(=O)[C@H]2C[C@@H]2c2cccc(Cl)c2)ncn1)c1ccc(C2CC2)cc1 [Example 65] : > 500 nM

For reference, reported EC50 for O=C(Nc1cc(NCc2nc3ccc(C4CC4)nn3n2)ccn1)[C@H]1C[C@@H]1c1cccc(Cl)c1 [Example 29] stands at 2.5 to 25 nM

Form field EC50, entry O=C(Nc1cc(NCc2ccc(Cn3ccccc3=O)cc2)cnn1)[C@H]1C[C@@H]1c1cccc(Cl)c1 (single isomer, unassigned) [Example 15] : 25 to 500 nM

Kindly note the recorded EC50 for Cc1ccnc([C@H]2C[C@@H]2C(=O)Nc2cc(OCc3cn4cc(C5CC5)cnc4n3)cnn2)n1 [Example 94] , which is < 2.5 nM

Summary for this compound, N#Cc1ccc(Cl)cc1[C@H]1C[C@@H]1C(=O)Nc1cc(NCc2nc3ccc(C4CC4)nn3n2)ncn1 (racemic) [Example 27] : EC50 is 2.5 to 25 nM

Quick note, EC50 for Cc1ccnc([C@H]2C[C@@H]2C(=O)Nc2cc(NCc3cn4cc(C5CC5)nc(N5CC(=O)N(C)C5=O)c4n3)ncn2)n1 (racemic) [Example 80] landed at < 2.5 nM

Noted for CCOC(=O)CCc1cc(C2CC2)cc2cc(CNc3cc(NC(=O)[C@H]4C[C@@H]4c4cccc(Cl)c4)ncn3)nn12 [Example 47] : its EC50 reads 2.5 to 25 nM

Measured EC50, O=C(Nc1cc(OCc2ccc(-c3ncc[nH]3)cc2)cnn1)[C@H]1C[C@@H]1c1cccc(Cl)c1 (racemic) [Example 13] : > 500 nM

For reference, reported EC50 for CN1C(=O)CN(c2cc(C3CC3)nn3cc(CNc4cc(NC(=O)[C@H]5C[C@@H]5c5cccc(Cl)c5)ncn4)nc23)C1=O [Example 62] stands at 2.5 to 25 nM

EC50 recorded for this compound, CN1CCN(c2cc(Cl)cc3cc(CNc4cc(NC(=O)[C@H]5C[C@@H]5c5cccc(Cl)c5)ncn4)cnc23)CC1 [Example 59] , is 2.5 to 25 nM

Recorded result, Cc1ccnc([C@H]2C[C@@H]2C(=O)Nc2cc(N3C[C@@H](O)C[C@@H]3c3cn4cc(C5CC5)cnc4n3)ncn2)c1F (relative stereo) [Example 76] , EC50: 25 to 500 nM

The compound O=C(Nc1cc(OCc2ccc(Cn3cccn3)cc2)cnn1)[C@H]1C[C@@H]1c1cccnc1Cl (racemic) [Example 5] showed EC50 equal to > 500 nM

----------
# TEST_SYSTEM: plasma kallikrein (Homo sapiens, UniProt P03952)
# Construct: from tissue; host or cells: sodium citrate collected human plasma
# Sequence (P03952 391-638 limits assumed): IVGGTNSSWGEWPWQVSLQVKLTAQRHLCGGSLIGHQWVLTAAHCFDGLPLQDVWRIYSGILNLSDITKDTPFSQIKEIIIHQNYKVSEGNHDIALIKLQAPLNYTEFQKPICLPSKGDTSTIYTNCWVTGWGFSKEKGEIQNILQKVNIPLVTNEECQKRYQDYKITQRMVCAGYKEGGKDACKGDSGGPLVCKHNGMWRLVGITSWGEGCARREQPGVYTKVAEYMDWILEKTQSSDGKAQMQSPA
# Sequence (P03952 20-390 partner limits assumed): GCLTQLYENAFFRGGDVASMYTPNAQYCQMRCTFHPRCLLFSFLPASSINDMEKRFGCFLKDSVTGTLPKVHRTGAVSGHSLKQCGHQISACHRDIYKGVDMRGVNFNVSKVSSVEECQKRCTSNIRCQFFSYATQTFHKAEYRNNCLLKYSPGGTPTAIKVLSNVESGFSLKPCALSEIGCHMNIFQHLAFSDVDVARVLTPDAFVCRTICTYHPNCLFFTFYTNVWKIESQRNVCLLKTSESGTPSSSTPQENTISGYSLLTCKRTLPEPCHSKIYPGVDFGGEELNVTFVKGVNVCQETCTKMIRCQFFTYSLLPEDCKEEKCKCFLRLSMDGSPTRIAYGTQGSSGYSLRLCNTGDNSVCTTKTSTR
# ASSAY_PROTOCOL: Neat human plasma assay (fluorogenic peptide), contact pathway-activated plasma
# Format: biochemical
# CONDITION: citrated human plasma, 10 nM human FXIIa activation, 100 μM PFR-AMC, room temperature; read-out: Human Plasma Assay: IC90
Let's look at some compounds and their measured IC90.

Solved cases below.
COMPOUND: Cc1ccnc([C@H]2C[C@@H]2C(=O)Nc2cc(N(C)Cc3cn4cc(C5CC5)cnc4n3)nc(C)n2)n1 [Example 90]
ASSAY_ENDPOINT: IC90
DATA_VALUE: 5 to 65 µM
//
COMPOUND: Cc1ccnc([C@H]2C[C@@H]2C(=O)Nc2cc(N(C)Cc3cn4cc(C5CC5)nc(N5CCCC5=O)c4n3)ncn2)n1 [Example 85]
ASSAY_ENDPOINT: IC90
DATA_VALUE: < 0.5 µM
//
COMPOUND: O=C(Nc1cc(NCc2cc3cc(C4CC4)cc(N4CCCC4=O)n3n2)ncn1)[C@H]1C[C@@H]1c1cccc(Cl)c1 [Example 52]
ASSAY_ENDPOINT: IC90
DATA_VALUE: 0.5 to 5 µM
//
COMPOUND: O=C(Nc1cc(NCc2nc3ncc(C4CC4)cn3n2)ccn1)[C@@H]1C[C@]12CCc1ccc(Cl)cc12 (racemic) [Example 41]
ASSAY_ENDPOINT: IC90
DATA_VALUE: 5 to 65 µM
//
COMPOUND: Cc1ccnc([C@H]2C[C@@H]2C(=O)Nc2cc(OCc3cn4cc(C5CC5)cnc4n3)cnn2)n1 [Example 94]
ASSAY_ENDPOINT: IC90
DATA_VALUE: < 0.5 µM

IC90 measured on Cc1ccnc([C@H]2C[C@@H]2C(=O)Nc2nccc(NCc3cn4cc(C5CC5)cnc4n3)n2)n1 (racemic) [Example 77] = 0.5 to 5 µM

Record CN1CCN(c2cc(C3CC3)nn3cc(CNc4cc(NC(=O)[C@H]5C[C@@H]5c5cccc(Cl)c5)ncn4)nc23)CC1 [Example 39] , field IC90: 5 to 65 µM

For O=C(Nc1cc(NCc2nc3ccc(C4CC4)cn3n2)ccn1)[C@H]1C[C@@H]1c1cccc(Cl)c1 [Example 25] the compound record lists IC90 as 5 to 65 µM

Record O=C(Nc1cc(NCc2cn3nc(C4CC4)ccc3n2)ccn1)[C@H]1C[C@@H]1c1cccc(Cl)c1 [Example 46] . Reported IC90: 5 to 65 µM

The value of IC90 measured for the compound Cc1ccnc([C@H]2C[C@@H]2C(=O)Nc2cc(NCc3cn4cc(C5CC5)nc(N5CC(=O)N(C)C5=O)c4n3)ncn2)n1 (racemic) [Example 80] turned out to be < 0.5 µM

Lab note: Cc1ccnc([C@H]2C[C@@H]2C(=O)Nc2cc(N3C[C@@H](O)C[C@@H]3c3cn4cc(C5CC5)cnc4n3)ncn2)n1 (relative stereo) [Example 72] gave IC90 of 0.5 to 5 µM

Value of measured IC90 for the entry N#Cc1ccc(Cl)cc1[C@H]1C[C@@H]1C(=O)Nc1cc(NCc2nc3ncc(C4CC4)cn3n2)ccn1 (racemic) [Example 42] : 0.5 to 5 µM

Memo: CN1CCN(c2cc(C3CC3)cc3cc(CNc4cc(NC(=O)[C@H]5C[C@@H]5c5cccc(Cl)c5)ncn4)nn23)CC1 [Example 53] , reported IC90: 0.5 to 5 µM

----------
# TEST_SYSTEM: plasma kallikrein (Homo sapiens, UniProt P03952)
# Construct: from tissue; host or cells: sodium citrate collected human plasma
# ASSAY_PROTOCOL: Neat human plasma assay (fluorogenic peptide), contact pathway-activated plasma
# Type: biochemical
# CONDITION: citrated human plasma, 10 nM human FXIIa activation, 100 μM PFR-AMC, room temperature; read-out: Human Plasma Assay: IC90
ASSAY_ENDPOINT: IC90

// worked examples, IC90 included
MOLECULE: O=C(Nc1cc(NCc2cc3cc(C4CC4)cc(N4CCOC4=O)n3n2)ncn1)[C@H]1C[C@@H]1c1cccc(Cl)c1 [Example 49]
TEST_SYSTEM: plasma kallikrein (Homo sapiens, UniProt P03952)
IC90: 0.5 to 5 µM
//
MOLECULE: CN1CCN(c2cc(C3CC3)cc3cc(CNc4ccnc(NC(=O)[C@H]5C[C@@H]5c5cccc(Cl)c5)c4)nn23)CC1 [Example 54]
TEST_SYSTEM: plasma kallikrein (Homo sapiens, UniProt P03952)
IC90: 0.5 to 5 µM
//
MOLECULE: Cc1ccnc([C@H]2C[C@@H]2C(=O)Nc2nc(C)nc(OCc3cn4cc(C5CC5)nc(N5CC(=O)N(C)C5=O)c4n3)n2)n1 [Example 87]
TEST_SYSTEM: plasma kallikrein (Homo sapiens, UniProt P03952)
IC90: 0.5 to 5 µM
//
MOLECULE: Cc1ccnc([C@H]2C[C@@H]2C(=O)Nc2cc(N(C)Cc3cn4cc(C5CC5)nc(N5CC(=O)N(C)C5=O)c4n3)ncn2)n1 [Example 83]
TEST_SYSTEM: plasma kallikrein (Homo sapiens, UniProt P03952)
IC90: < 0.5 µM
//
MOLECULE: Cc1ccnc([C@H]2C[C@@H]2C(=O)Nc2cc(OCc3cn4nc(C5CC5)cc(N5CC(=O)N(C)C5=O)c4n3)cnn2)n1 [Example 97]
TEST_SYSTEM: plasma kallikrein (Homo sapiens, UniProt P03952)
IC90: < 0.5 µM

Notebook: N#Cc1ccc(Cl)cc1[C@H]1C[C@@H]1C(=O)Nc1cc(NCc2cn3cc(C4CC4)cnc3n2)ccn1 (racemic) [Example 22] , IC90 read as 5 to 65 µM
